# Tested system: T1, human APC-PPACK (active site-blocked APC) (human, UniProt P04070 43-461, active site bound by the tripeptide inhibitor Phe-Pro-Arg-chloromethylketone (PPACK))
# T1 construct: Bought (Haematologic Technologies)
# T1 sequence (P04070 other isoform, or with tags, fused parts or gaps): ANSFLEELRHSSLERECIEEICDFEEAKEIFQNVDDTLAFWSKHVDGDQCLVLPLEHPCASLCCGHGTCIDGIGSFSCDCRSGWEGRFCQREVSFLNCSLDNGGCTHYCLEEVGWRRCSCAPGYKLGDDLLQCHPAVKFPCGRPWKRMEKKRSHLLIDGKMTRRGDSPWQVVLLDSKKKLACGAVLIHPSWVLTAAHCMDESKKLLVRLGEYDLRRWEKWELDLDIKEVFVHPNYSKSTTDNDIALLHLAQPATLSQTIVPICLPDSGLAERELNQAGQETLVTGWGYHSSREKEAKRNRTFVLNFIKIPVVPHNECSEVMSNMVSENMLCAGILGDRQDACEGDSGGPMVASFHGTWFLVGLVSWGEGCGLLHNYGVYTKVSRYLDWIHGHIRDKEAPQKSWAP
# Assay name: ELISA
Value type: binding result

Query: Query (binder): SR16983-R3-P4-E04 (VHH) VHH: QVQLVESGGGLVQAGGSLRLSCAASGRTVGSYAVGWFRQAPGKEREFLAASSRSTGNTVYADSVKGRFTISRDDAKNTLYLQMNSLKPEDTAVYYCATRASINYNYANWPYWGQGTQVTVSS ; field requested: binding result
Result: binds

Query: Query (binder): SR16983-R3-P3-C06 (VHH) VHH: QLQLVESGGGLVQPGGSLRLSCAASGFTFSTKWMYWVRQGPGKGLEWVSTIDASGGSTYYADSVKGRFTISRDNTEKKVYLQMNSLESADTAVYYCARSAGGQFRGRGTQVTVSS ; field requested: binding result
Result: binds
